Target: full-length beta-Catenin (Uniprot ID P35222) (Homo sapiens (Human)) (UniProt P35222)
Sequence (P35222 whole entry): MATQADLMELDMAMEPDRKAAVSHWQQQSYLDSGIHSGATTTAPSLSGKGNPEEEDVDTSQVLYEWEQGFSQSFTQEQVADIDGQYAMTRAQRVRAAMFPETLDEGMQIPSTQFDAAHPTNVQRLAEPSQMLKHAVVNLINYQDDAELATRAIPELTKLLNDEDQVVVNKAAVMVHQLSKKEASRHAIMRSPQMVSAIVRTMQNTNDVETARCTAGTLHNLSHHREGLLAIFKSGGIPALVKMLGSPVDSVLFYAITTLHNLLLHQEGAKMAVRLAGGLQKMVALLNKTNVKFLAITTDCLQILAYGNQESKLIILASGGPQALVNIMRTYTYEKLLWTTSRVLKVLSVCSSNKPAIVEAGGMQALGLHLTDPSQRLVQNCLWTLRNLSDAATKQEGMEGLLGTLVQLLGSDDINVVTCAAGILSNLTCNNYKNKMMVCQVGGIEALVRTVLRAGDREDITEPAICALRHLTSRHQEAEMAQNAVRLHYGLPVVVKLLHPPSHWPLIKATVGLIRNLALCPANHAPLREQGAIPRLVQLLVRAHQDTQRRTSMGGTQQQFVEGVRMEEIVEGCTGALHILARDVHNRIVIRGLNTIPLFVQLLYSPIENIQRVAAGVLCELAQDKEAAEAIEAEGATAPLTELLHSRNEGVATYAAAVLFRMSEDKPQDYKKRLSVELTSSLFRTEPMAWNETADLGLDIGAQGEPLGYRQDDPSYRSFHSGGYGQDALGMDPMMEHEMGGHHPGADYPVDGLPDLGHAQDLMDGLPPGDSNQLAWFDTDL
Experiment: fluorescence polarization competition; competitor 5FAM-TCF4(10-53) on full-length beta-catenin
pIC50: −log10 of the molar value. Starred links: 1 amine or outer side, 2 acyl side, 3 side chain; linkers in the order of their positions; H or OH if unused. Positions of bridges follow the written chain, without caps; N, C: chain ends. Non-standard residues stand in square brackets, D forms with d. Primed or numbered codes have the meaning given here. PyrS2″ = (S)-3-amino-1-((pent-4-en-1-yloxy)carbonyl)pyrrolidine-3-carboxylic acid (stapling residue), C=CCCCOC(=O)N1CC[C@@](N[*:1])(C(=O)[*:2])C1; (bismethoxyethylamine)GlnR = [bismethoxyethylamine]GlnR, N5,N5-bis(2-methoxyethyl)-L-glutamine, COCCN(CCOC)C(=O)CC[C@H](N[*:1])C(=O)[*:2]; B5(4) = 2,2-bis(4-pentenyl)glycine = 2-amino-2-(pent-4-en-1-yl)hept-6-enoic acid (stitching residue), C=CCCCC(CCCC=C)(N[*:1])C(=O)[*:2]; B5(25) = 2-amino-2-(pent-4-en-1-yl)hept-6-enoic acid (stitching residue), C=CCCCC(CCCC=C)(N[*:1])C(=O)[*:2]; PyrR = (R)-1-((allyloxy)carbonyl)-3-aminopyrrolidine-3-carboxylic acid; Phe(3-COOH) = N[C@@H](Cc1cccc(C(=O)O)c1)C(=O)O; Phe(2-CF3) = N[C@@H](Cc1ccccc1C(F)(F)F)C(=O)O; dαMeGly(allyl) = C=CC[C@@](C)(N)C(=O)O; Bta = N[C@@H](Cc1csc2ccccc12)C(=O)O; αAllylPro = C=CC[C@@]1(C(=O)O)CCCN1; tBuAla = CC(C)(C)C[C@H](N)C(=O)O; 3Thi = N[C@@H](Cc1ccsc1)C(=O)O; Nle = CCCC[C@H](N)C(=O)O; Abu = CC[C@H](N)C(=O)O; Aib = CC(C)(N)C(=O)O
Decision: pIC50 compared against 7; not below it gives class 1, below it gives class 0.

Is the recorded value of pIC50 equal to or greater than 7 for this binder? Ac-[αAllylPro]D[tBuAla][B5(4)]D[Phe(3-COOH)][Aib]AF[Abu][PyrS2″][3Thi][Bta][(bismethoxyethylamine)GlnR]-NH2 (staple 1-4, 4-11) [I-2559]
class 1

Check the entry Ac-[PyrR]AD[tBuAla][B5(25)]D[Phe(3-COOH)]AAFL[PyrS2″][Phe(2-CF3)][Bta]Q-NH2 (staple 1-5, 5-12 (inferred); not fully specified; printed as Ac-PyrR-Ala-Asp-Npg-B5-Asp-3COOHF-Ala-Ala-Phe-Leu-PyrS2-2F3MeF-BztA-Gln-NH2) [I-2568] : does pIC50 equal or exceed 7?
class 0

Evaluate Ac-[PyrR]ED[tBuAla][B5(25)]D[Phe(3-COOH)]AAFL[PyrS2″][Phe(2-CF3)][Bta]Q-NH2 (staple 1-5, 5-12 (inferred); not fully specified; printed as Ac-PyrR-Glu-Asp-Npg-B5-Asp-3COOHF-Ala-Ala-Phe-Leu-PyrS2-2F3MeF-BztA-Gln-NH2) [I-2569] : pIC50 at minimum 7?
class 0

Please check the record Ac-[αAllylPro]D[tBuAla][B5(4)]D[Phe(3-COOH)][Aib]AF[Nle][PyrS2″][3Thi][Bta][(bismethoxyethylamine)GlnR]-NH2 (staple 1-4, 4-11) [I-2554] and state if its pIC50 is at or above 7.
class 1

Please check the record Ac-P[dαMeGly(allyl)]D[tBuAla][B5(25)]D[Phe(3-COOH)]AAFL[PyrS2″][Phe(2-CF3)][Bta]Q-NH2 (staple 5-12, 2-5) [I-2566] and state if its pIC50 is at or above 7.
class 0
